// data source = patent US20130143798A1

Target Desc: glucagon receptor (UniProt P47871 26-477, limits assumed)
Sequence (P47871 26-477 limits assumed): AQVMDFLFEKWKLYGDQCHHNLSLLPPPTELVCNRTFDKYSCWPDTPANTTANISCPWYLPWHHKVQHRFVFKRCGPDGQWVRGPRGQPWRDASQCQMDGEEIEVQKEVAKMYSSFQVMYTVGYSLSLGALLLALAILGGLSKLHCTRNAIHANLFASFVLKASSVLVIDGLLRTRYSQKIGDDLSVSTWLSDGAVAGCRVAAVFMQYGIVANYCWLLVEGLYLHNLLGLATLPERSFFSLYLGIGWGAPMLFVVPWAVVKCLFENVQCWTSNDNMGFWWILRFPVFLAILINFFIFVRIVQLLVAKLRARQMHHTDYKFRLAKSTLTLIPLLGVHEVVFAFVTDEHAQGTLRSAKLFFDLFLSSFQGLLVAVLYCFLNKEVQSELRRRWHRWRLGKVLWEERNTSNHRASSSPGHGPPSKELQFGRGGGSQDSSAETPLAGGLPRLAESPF
Method Notes: cell-based or functional assay
Numbered stars: 1 amine (or outer) side, 2 acyl side, 3 side chain; on linkers, the order of the positions; unused ones are H or OH. Side chains are listed from the residue outwards. Ends that are not written are not given here. * marks the point of attachment. C18 diacid = O=C(O)CCCCCCCCCCCCCCCCC(=O)*; γGlu = O=C(O)[C@H](CCC(=O)[*:2])N[*:1]; AEEA = NCCOCCOCC(=O)O
Quantity: Assay (I) Glucagon [EC50] (nM)

Answered cases to consult:
{"columns": ["Binder", "Unit Abbreviation", "Assay (I) Glucagon [EC50]"],
 "data": [
  ["HSQGTFTSDYSKYLDK([γGlu-γGlu-AEEA-AEEA-γGlu-C18 diacid])RRAQDFVQWLLNT", "nM", 0.105],
  ["HSQGTFTSDYSKYLDSRRAQDFVQWLLK([γGlu-γGlu-γGlu-C18 diacid])T", "nM", 0.141]
]}

(I) HSQGTFTSDYSRYLDSRRAQDFVK([γGlu-γGlu-AEEA-AEEA-γGlu-C18 diacid])WLLNT
(II) HSQGTFTSDYSKYLDK([γGlu-γGlu-AEEA-AEEA-γGlu-C18 diacid])RRAQEFVQRLLNT
(III) HSQGTFTSDYSKYLDSRRAQDFVQWLLNTK (C-terminal Lys (position 30): N-epsilon acylated with the substituent printed in the name) [N^α-([Leu^27]Glucagonyl) …]
List from greatest to least Assay (I) Glucagon [EC50]. Put the labels in the order asked and list them.
II, I, III
(II: 0.45 nM, I: 0.127 nM, III: 0.056 nM)
